The reader will find reported Fbg values listed item by item below.
- Species on record: Rattus norvegicus
- Test Method Notes: Open TG-GATES - Regimen: Daily Repeat
- Assay type: toxicity, organism-based, Sprague-Dawley
- Set-up: regimen Daily Repeat, gender Male, age 6 weeks
- Experimental Parameters: in vivo, po, 100 mg/kg, […], tissue Blood, route gavage, dose level Low, time 7 day
Number only, in mg/dL; omit the unit.

Input COc1ccc2[nH]c([S+]([O-])Cc3ncc(C)c(OC)c3C)nc2c1 (stereo not given) . Output Fbg: 221

Input CCOc1ccc(NC(=O)CC(C)O)cc1 (stereo not given) . Output Fbg: 276.6

Input CCOC(=O)CCC(=O)O[C@H]1[C@H](O[C@@H]2[C@@H](C)[C@H](O[C@H]3C[C@@](C)(OC)[C@@H](O)[C@H](C)O3)[C@@H](C)C(=O)O[C@H](CC)[C@@](C)(O)[C@H](O)[C@@H](C)C(=O)[C@H](C)C[C@@]2(C)O)O[C@H](C)C[C@@H]1N(C)C [ERYTHROMYCIN ETHYLSUCCINATE] . Output Fbg: 311.8

Input COC1=CC(=O)C[C@@H](C)[C@]12Oc1c(Cl)c(OC)cc(OC)c1C2=O . Output Fbg: 229.4

Input NC(N)=Nc1nc(CSCCC(N)=NS(N)(=O)=O)cs1 . Output Fbg: 217.6

====

- Species: Rattus norvegicus
- Test Method Notes: Open TG-GATES - Regimen: Daily Repeat
- Format: toxicity, organism-based, Sprague-Dawley
- Set-up: regimen Daily Repeat, gender Male, age 6 weeks
- Experimental Parameters: in vivo, po, 0 mg/kg, […], tissue Blood, route gavage, dose level Control, time 7 day
Observable: Hb (g/dL)
Number only, in g/dL; omit the unit.

1) CCOC(=O)CCC(=O)O[C@H]1[C@H](O[C@@H]2[C@@H](C)[C@H](O[C@H]3C[C@@](C)(OC)[C@@H](O)[C@H](C)O3)[C@@H](C)C(=O)O[C@H](CC)[C@@](C)(O)[C@H](O)[C@@H](C)C(=O)[C@H](C)C[C@@]2(C)O)O[C@H](C)C[C@@H]1N(C)C [ERYTHROMYCIN ETHYLSUCCINATE] ... 14.1
2) CCOc1ccc(NC(=O)CC(C)O)cc1 (stereo not drawn) ... 13.5

Input CN(C)CCN(Cc1cccs1)c1ccccn1 . Output Hb: 13.4

====

- Organism: Rattus norvegicus
- Test Method Notes: Open TG-GATES - Regimen: Single
- Format: toxicity, organism-based, Sprague-Dawley
- Set-up: regimen Single, gender Male, age 6 weeks
- Experimental Parameters: in vivo, po, 300 mg/kg, 3 h, tissue Plasma, route gavage, dose level Middle
Observable: Na (meq/L)
Number only, in meq/L; omit the unit.

Solved cases below.
1. NC(N)=Nc1nc(CSCCC(N)=NS(N)(=O)=O)cs1 ... 140.8
2. CCOC(=O)CCC(=O)O[C@H]1[C@H](O[C@@H]2[C@@H](C)[C@H](O[C@H]3C[C@@](C)(OC)[C@@H](O)[C@H](C)O3)[C@@H](C)C(=O)O[C@H](CC)[C@@](C)(O)[C@H](O)[C@@H](C)C(=O)[C@H](C)C[C@@]2(C)O)O[C@H](C)C[C@@H]1N(C)C [ERYTHROMYCIN ETHYLSUCCINATE] ... 138.6
3. COC1=CC(=O)C[C@@H](C)[C@]12Oc1c(Cl)c(OC)cc(OC)c1C2=O ... 140.8

Input COc1ccc2[nH]c([S+]([O-])Cc3ncc(C)c(OC)c3C)nc2c1 (centres undefined) . Output Na: 139.6

====

- Organism: Rattus norvegicus
- Test Method Notes: Open TG-GATES - Regimen: Single
- Type: toxicity, organism-based, Sprague-Dawley
- Parameters: regimen Single, gender Male, age 6 weeks
- Experimental Parameters: in vivo, po, 1000 mg/kg, 24 h, tissue Blood, route gavage, dose level High
Observable: APTT (s)
Number only, in s; omit the unit.

1) NC(N)=Nc1nc(CSCCC(N)=NS(N)(=O)=O)cs1 ... 22.2
2) COC1=CC(=O)C[C@@H](C)[C@]12Oc1c(Cl)c(OC)cc(OC)c1C2=O ... 18.9
3) COc1ccc2[nH]c([S+]([O-])Cc3ncc(C)c(OC)c3C)nc2c1 (centres undefined) ... 19.9

Now take the following compound into account.
Input CCOC(=O)CCC(=O)O[C@H]1[C@H](O[C@@H]2[C@@H](C)[C@H](O[C@H]3C[C@@](C)(OC)[C@@H](O)[C@H](C)O3)[C@@H](C)C(=O)O[C@H](CC)[C@@](C)(O)[C@H](O)[C@@H](C)C(=O)[C@H](C)C[C@@]2(C)O)O[C@H](C)C[C@@H]1N(C)C [ERYTHROMYCIN ETHYLSUCCINATE] . Output APTT: 20.2

====

- Organism: Rattus norvegicus
- Test Method Notes: Open TG-GATES - Regimen: Daily Repeat
- Assay type: toxicity, organism-based, Sprague-Dawley
- Design: regimen Daily Repeat, gender Male, age 6 weeks
- Experimental Parameters: in vivo, po, 1000 mg/kg, […], tissue Plasma, route gavage, dose level High, time 28 day
Observable: TG (mg/dL)
Number only, in mg/dL; omit the unit.

Solved cases below.
1. COc1ccc2[nH]c([S+]([O-])Cc3ncc(C)c(OC)c3C)nc2c1 (stereo unspecified) ... 49
2. CCOC(=O)CCC(=O)O[C@H]1[C@H](O[C@@H]2[C@@H](C)[C@H](O[C@H]3C[C@@](C)(OC)[C@@H](O)[C@H](C)O3)[C@@H](C)C(=O)O[C@H](CC)[C@@](C)(O)[C@H](O)[C@@H](C)C(=O)[C@H](C)C[C@@]2(C)O)O[C@H](C)C[C@@H]1N(C)C [ERYTHROMYCIN ETHYLSUCCINATE] ... 99.6
3. CCOc1ccc(NC(=O)CC(C)O)cc1 (stereo unspecified) ... 117.2

Input CC(C)OC(=O)C(C)(C)Oc1ccc(C(=O)c2ccc(Cl)cc2)cc1 [FENOFIBRATE] . Output TG: 47.6

Input COC1=CC(=O)C[C@@H](C)[C@]12Oc1c(Cl)c(OC)cc(OC)c1C2=O . Output TG: 38

Input NC(N)=Nc1nc(CSCCC(N)=NS(N)(=O)=O)cs1 . Output TG: 72.2

====

- Organism: Rattus norvegicus
- Test Method Notes: Open TG-GATES - Regimen: Daily Repeat
- Assay type: toxicity, organism-based, Sprague-Dawley
- Set-up: regimen Daily Repeat, gender Male, age 6 weeks
- Experimental Parameters: in vivo, po, 0 mg/kg, […], tissue Plasma, route gavage, dose level Control, time 7 day
Observable: DBIL (mg/dL)
Number only, in mg/dL; omit the unit.

Solved cases below.
1. CCCNC(=O)NS(=O)(=O)c1ccc(Cl)cc1 [CHLORPROPAMIDE] ... 0.014
2. CCOc1ccc(NC(=O)CC(C)O)cc1 (configuration not stated) ... 0.018
3. CCOC(=O)CCC(=O)O[C@H]1[C@H](O[C@@H]2[C@@H](C)[C@H](O[C@H]3C[C@@](C)(OC)[C@@H](O)[C@H](C)O3)[C@@H](C)C(=O)O[C@H](CC)[C@@](C)(O)[C@H](O)[C@@H](C)C(=O)[C@H](C)C[C@@]2(C)O)O[C@H](C)C[C@@H]1N(C)C [ERYTHROMYCIN ETHYLSUCCINATE] ... 0
4. O=C(CCCN1CCC(O)(c2ccc(Cl)cc2)CC1)c1ccc(F)cc1 ... 0.006
5. COc1ccc2[nH]c([S+]([O-])Cc3ncc(C)c(OC)c3C)nc2c1 (configuration not stated) ... 0.09

Input COC1=CC(=O)C[C@@H](C)[C@]12Oc1c(Cl)c(OC)cc(OC)c1C2=O . Output DBIL: 0.1

Input NC(N)=Nc1nc(CSCCC(N)=NS(N)(=O)=O)cs1 . Output DBIL: 0.094

====

The reader will find reported PL values listed item by item below.
- Species: Rattus norvegicus
- Test Method Notes: Open TG-GATES - Regimen: Single
- Type: toxicity, organism-based, Sprague-Dawley
- Set-up: regimen Single, gender Male, age 6 weeks
- Experimental Parameters: in vivo, po, 300 mg/kg, 3 h, tissue Plasma, route gavage, dose level Middle
Number only, in mg/dL; omit the unit.

Input NC(N)=Nc1nc(CSCCC(N)=NS(N)(=O)=O)cs1 [FAMOTIDINE] . Output PL: 146

Input COc1ccc2[nH]c([S+]([O-])Cc3ncc(C)c(OC)c3C)nc2c1 (centres undefined) [OMEPRAZOLE] . Output PL: 146.4

Input CCOC(=O)CCC(=O)O[C@H]1[C@H](O[C@@H]2[C@@H](C)[C@H](O[C@H]3C[C@@](C)(OC)[C@@H](O)[C@H](C)O3)[C@@H](C)C(=O)O[C@H](CC)[C@@](C)(O)[C@H](O)[C@@H](C)C(=O)[C@H](C)C[C@@]2(C)O)O[C@H](C)C[C@@H]1N(C)C [ERYTHROMYCIN ETHYLSUCCINATE] . Output PL: 149

Input COC1=CC(=O)C[C@@H](C)[C@]12Oc1c(Cl)c(OC)cc(OC)c1C2=O [GRISEOFULVIN] . Output PL: 175.8
